test-system: mPGES-1 (Homo sapiens, UniProt O14684)
Sequence (O14684 1-152): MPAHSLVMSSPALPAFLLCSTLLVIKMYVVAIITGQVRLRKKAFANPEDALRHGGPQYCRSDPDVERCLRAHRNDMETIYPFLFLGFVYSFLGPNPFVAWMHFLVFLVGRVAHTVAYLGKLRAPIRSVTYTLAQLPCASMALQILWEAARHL
method: mPGES-1 enzyme activity assay (PGE2 enzyme immunoassay), human enzyme
Format: biochemical
Set-up: made in house; host or cells: FreeStyle 293-F cells, crude microsomal preparation
study-conditions: recombinant microsomal enzyme; means ± SD, triplicate; read-out: IC50 against mPGES-1, Human enzyme
Protocol: Studies were conducted to characterize the inhibitory activity against recombinant mPGES-1 of the compounds synthesized in accordance with Examples 1-4, and disclosed herein. […] Compounds were incubated with the enzyme for 15 min at room temperature before the addition of cold PGH2 (1 μM final) to initiate the enzyme reaction. […] The reaction mixture was placed on ice until PGE2 production was determined by the PGE2 enzyme immunoassay as described earlier. […]
Binary label based on IC50 with cut-off 200 nM: below gives True, not below gives False.

Check out these entries, answers already filled in.
>>> assigned_label("O=C(O)CN1C(=O)S/C(=C2\\C(=O)N(CCCCc3ccccc3)c3ccccc32)C1=O")
"False"
>>> assigned_label("CCCCCOc1ccc(/C=C/[N+](=O)[O-])cc1OC")
"False"
>>> assigned_label("CCCCCCCCCOc1ccc(/C=C(\\C#N)C(N)=O)cc1OC")
"False"
>>> assigned_label("O=C(O)CN1C(=O)S/C(=C2\\C(=O)N(CC3CCCCC3)c3ccccc32)C1=O")
"False"
>>> assigned_label("CCCCCCOc1ccc(-c2nn(-c3ccc(Cl)cc3)cc2C=C2C(=O)NC(=O)NC2=O)cc1")
"False"

Inquiry: In the record for CCCCCCCCOc1c(Br)cc(/C=C(\C#N)C(=O)OCC)cc1OC , is IC50 less than 200 nM?
Reply text: False

Inquiry: Then this compound: CCCCOc1ccc(/C=C(\C#N)C(=O)O)cc1OC
Reply text: False

---

test-system: mPGES-1 Mouse enzyme (Mus musculus, UniProt Q9JM51)
Construct: made in house; host or cells: FreeStyle 293-F cells, crude microsomal preparation
Sequence (Q9JM51 1-153): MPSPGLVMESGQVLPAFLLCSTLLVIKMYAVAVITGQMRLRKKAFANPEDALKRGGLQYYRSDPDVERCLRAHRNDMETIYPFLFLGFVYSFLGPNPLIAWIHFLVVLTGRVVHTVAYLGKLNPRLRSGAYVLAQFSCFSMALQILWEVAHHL
method: mPGES-1 enzyme activity assay (PGE2 enzyme immunoassay), mouse enzyme
Format: biochemical
study-conditions: IC50 against mPGES-1, Mouse enzyme, recombinant microsomal enzyme; means ± SD, triplicate
measurement-name: pIC50
On this scale, pIC50 is minus log10 of a concentration expressed in M (mol/L).

>>> experimental_result("CCCCCCCCCOc1ccc(C=C2C(=O)NC(=O)NC2=O)cc1[N+](=O)[O-]")
5.89

With those in mind, consider the next molecule.
Inquiry: Tell me the measured pIC50 of O=C1NC(=O)C(=Cc2ccc(OCCCC3CCCCC3)c([N+](=O)[O-])c2)C(=O)N1 [Compound I-32] , please.
Reply text: 6.37

---

test-system: mPGES-1 Mouse enzyme (Mus musculus)
Construct: made in house; host or cells: FreeStyle 293-F cells, crude microsomal preparation
method: mPGES-1 enzyme activity assay (PGE2 enzyme immunoassay), mouse enzyme
Type: biochemical
study-conditions: recombinant microsomal enzyme; means ± SD, triplicate; read-out: IC50 against mPGES-1, Mouse enzyme
Protocol: Studies were conducted to characterize the inhibitory activity against recombinant mPGES-1 of the compounds synthesized in accordance with Examples 1-4, and disclosed herein. […] Compounds were incubated with the enzyme for 15 min at room temperature before the addition of cold PGH2 (1 μM final) to initiate the enzyme reaction. […] The reaction mixture was placed on ice until PGE2 production was determined by the PGE2 enzyme immunoassay as described earlier. […]
Response field class: string, computed from recorded IC50 by ranges bucket A = under 700 nM, bucket B = from 700 nM up to 900 nM, bucket C = 900 nM and over

Answered examples (5):
>>> assigned_label("CCCCCCCCCCOc1ccc(/C=C(\\C#N)C(=O)O)cc1OC")
"bucket A"
>>> assigned_label("O=C(O)CN1C(=O)S/C(=C2\\C(=O)N(CCCC3CCCCC3)c3ccccc32)C1=O")
"bucket C"
>>> assigned_label("CCCCCCCCOc1c(Br)cc(C=C(C#N)C#N)cc1OC")
"bucket A"
>>> assigned_label("O=C(O)CN1C(=O)S/C(=C2\\C(=O)N(Cc3ccc(Cl)cc3)c3ccc(-c4ccccc4)cc32)C1=O")
"bucket C"
>>> assigned_label("CCCCCCOc1ccc(C=C(C#N)C#N)cc1[N+](=O)[O-]")
"bucket B"

Inquiry: # classify by IC50 band: CCCCCCCCCN1C(=O)/C(=C2\SC(=O)N(CC(=O)O)C2=O)c2ccccc21
Reply text: bucket C

Inquiry: Try this molecule too: CCCCCCCCCCN1C(=O)/C(=C2\SC(=O)N(CC(=O)O)C2=O)c2ccccc21
Reply text: bucket C

Inquiry: Try this molecule too: O=C(CCCCCN1C(=O)C=CC1=O)Nc1ccc2c(c1)Cc1ccccc1-2
Reply text: bucket C

Inquiry: Now consider O=C(O)CN1C(=O)S/C(=C2\C(=O)N(CCC3CCCCC3)c3ccc(-c4ccccc4)cc32)C1=O and answer again.
Reply text: bucket B

Inquiry: And what about the molecule O=C(O)CN1C(=O)S/C(=C2\C(=O)N(CCCc3ccccc3)c3ccccc32)C1=O ?
Reply text: bucket B

Inquiry: Let us now turn to O=C1NC(=O)C(=Cc2ccc(OCCCCC3CCCCC3)c(Cl)c2)C(=O)N1
Reply text: bucket A

---

test-system: mPGES-1 (Homo sapiens)
Sequence (O14684 1-152): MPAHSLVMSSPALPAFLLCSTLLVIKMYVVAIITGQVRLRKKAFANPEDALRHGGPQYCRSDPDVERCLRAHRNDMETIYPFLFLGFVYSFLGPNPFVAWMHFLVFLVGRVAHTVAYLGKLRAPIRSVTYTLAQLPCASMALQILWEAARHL
method: mPGES-1 enzyme activity assay (PGE2 enzyme immunoassay), human enzyme
Type: biochemical
Parameters: made in house; host or cells: FreeStyle 293-F cells, crude microsomal preparation
study-conditions: recombinant microsomal enzyme; means ± SD, triplicate; read-out: IC50 against mPGES-1, Human enzyme
measurement-name: pIC50
Note: pIC50 values are expressed as the negative base-10 logarithm of concentration in M.

Reference set, count: 5
>>> experimental_result("CCCCCCOc1ccc(-c2nn(-c3ccc(Cl)cc3)cc2C=C2C(=O)NC(=S)NC2=O)cc1")
7.28
>>> experimental_result("O=C(O)CN1C(=O)S/C(=C2\\C(=O)N(CCCOc3ccc4ccccc4c3)c3ccccc32)C1=O")
5.77
>>> experimental_result("CCCCCCCCOc1c(Br)cc(C=C(C#N)C#N)cc1OC")
7.13
>>> experimental_result("CCCCOc1ccc(C=C(C#N)C#N)cc1OC")
6.46
>>> experimental_result("CCCCCCCCCCOc1ccc(/C=C(\\C#N)C(N)=O)cc1OC")
5.36

Inquiry: What does the data say about its pIC50? Entry: CCCCCCCCN1C(=O)/C(=C2\SC(=O)N(CC(=O)O)C2=O)c2ccccc21
Reply text: 6.50

Inquiry: // query: O=C(O)CN1C(=O)S/C(=C2\C(=O)N(Cc3ccc(Cl)cc3)c3ccccc32)C1=O
Reply text: 6.21

Inquiry: Quick one: CCCCCCCCCCOc1ccc(-c2nn(-c3ccc(Cl)cc3)cc2C=C2C(=O)NC(=O)NC2=O)cc1
Reply text: 6.53

Inquiry: // repeat for CCCCCCCOc1c(Br)cc(/C=C(\C#N)C(N)=O)cc1OC and report
Reply text: 5.89

---

test-system: mPGES-1 Mouse enzyme (Mus musculus, UniProt Q9JM51)
Construct: made in house; host or cells: FreeStyle 293-F cells, crude microsomal preparation
method: mPGES-1 enzyme activity assay (PGE2 enzyme immunoassay), mouse enzyme
Assay type: biochemical
study-conditions: compound at a concentration of 10 μM; read-out: % inhibition of the compound against mPGES-1, Mouse enzyme
Property: inhibition at 10 µM; scope: individual compounds

Some entries whose results are on file:
>>> experimental_result("Cc1cc(C=C2C(=O)NC(=O)NC2=O)ccc1OCCCCC1CCCCC1")
"25%"
>>> experimental_result("CCCCCCOc1ccc(-c2nn(-c3ccc(Cl)cc3)cc2C=C2C(=O)NC(=O)NC2=O)cc1")
"46%"
>>> experimental_result("CCCCCCCCCCOc1ccc(-c2nn(-c3ccccc3)cc2C=C2C(=O)NC(=O)NC2=O)cc1")
"21%"
>>> experimental_result("CN1C(=O)C(=Cc2ccc(OCCCC3CCCCC3)c([N+](=O)[O-])c2)C(=O)N(C)C1=O")
"41%"
>>> experimental_result("CCCCCN1C(=O)/C(=C2\\SC(=O)N(CC(=O)O)C2=O)c2ccccc21")
"35%"

Inquiry: # inhibition at 10 µM lookup, item O=C(O)CN1C(=O)/C(=C2\SC(=O)N(CCCCc3ccccc3)C2=O)c2ccccc21
Reply text: 64%

Inquiry: CCCCOc1ccc(-c2nn(-c3ccccc3)cc2/C=C(/C#N)C(=O)O)cc1 , same question.
Reply text: 21%

Inquiry: Same question, CCCCCCCCCCOc1ccc(-c2nn(-c3ccc(Cl)cc3)cc2/C=C(/C#N)C(=O)O)cc1 this time
Reply text: 4.6%
